Data provenance: patent US4401822A

Experiment: acute toxicity in mice (LD50)
Type: in vivo
Settings: mouse, in vivo, sc, male mouse, subcutaneous
measure: LD50

Observe how each entry below is paired with its result.
compound: CCS(=O)(=O)c1cc(C(=O)NCC2CCCN2C)c(OC)cc1N (centres unmarked) [Compound 2]
LD50: 280 mg/kg
//
compound: CCS(=O)(=O)c1cc(C(=O)NCC2CCCN2C)c(OC)cc1N (single isomer, unassigned) [Compound 6]
LD50: 380 to 396 mg/kg
//
compound: CCCS(=O)(=O)c1cc(C(=O)NCC2CCCN2CC)c(OC)cc1N (centres unmarked)
LD50: 140 to 144 mg/kg
//
compound: CCN1CCCC1CNC(=O)c1cc(S(=O)(=O)CC)c(N)cc1OC (centres unmarked) [Compound 1]
LD50: 224 to 250 mg/kg

Fill in LD50 for each of the 2 compounds listed.
1. CCN1CCCC1CNC(=O)c1cc(S(C)(=O)=O)c(N)cc1OC (centres unmarked)
2. CCN1CCCC1CNC(=O)c1cc(S(=O)(=O)CC)c(N)cc1OC (single isomer, unassigned) [Compound 4]

["208 to 225 mg/kg", "254 to 263 mg/kg"]

Fill in LD50 for each of the 2 compounds listed.
1. COc1cc(N)c(S(C)(=O)=O)cc1C(=O)NCC1CCCN1C (centres unmarked)
2. C=CCN1CCCC1CNC(=O)c1cc(S(=O)(=O)CC)c(N)cc1OC (centres unmarked)

["202 mg/kg", "312 to 330 mg/kg"]
